Biological target: T1, PUF4 RNA-binding domain (Saccharomyces cerevisiae, UniProt P25339 537-888)
T1 sequence: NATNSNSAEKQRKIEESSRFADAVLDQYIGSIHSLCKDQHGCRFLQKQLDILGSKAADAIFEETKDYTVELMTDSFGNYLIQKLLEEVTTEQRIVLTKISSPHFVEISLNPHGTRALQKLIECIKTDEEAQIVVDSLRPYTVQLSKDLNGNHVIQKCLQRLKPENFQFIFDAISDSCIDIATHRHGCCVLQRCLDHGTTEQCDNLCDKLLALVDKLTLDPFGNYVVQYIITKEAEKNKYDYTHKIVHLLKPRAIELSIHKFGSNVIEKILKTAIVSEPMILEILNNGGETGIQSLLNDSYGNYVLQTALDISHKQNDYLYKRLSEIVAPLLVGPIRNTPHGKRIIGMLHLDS
Assay: Mg; RNA-MaP; 20 mM Na-HEPES pH 7.4, 30 mM KOAc, 0.75 mM MgCl2, 0.1% Tween-20, 5% glycerol, 0.1 mg/mL BSA, 2 mM DTT; 25 C; 0.0125-409.6 nM protein
Settings: tags: N-His6-TEV cleaved; C-SNAP kept, Cy3B-labelled; label: tethered on chip by stalled RNA polymerase
pKd: −log10 of the molar value.

binder	valueQualifier	pKd
Ib_S2_P5E.1_K5.1_C5.1_H5.1_[T3C]_[A4T]_A5.1_F5.1_T5.1 (ssRNA) RNA: UUUGAUUAAUAUGAUAUCGUUCUUUCUUGCUUUAUUAUUCUUUCUCGAUAUCAUAUUAAUCUUU	=	6.03
UCUCUUUGACACUAUUAGCUCUCUU (ssRNA) [Id_ii_S1_P4E.4_K4.3_C4.2_[C-2T]_[T-1G]_H4.3_A4.1_F4.1_T4.2_[T11C]]	<	5.64
UCUCUUUGUAAAACACUCUCUU (ssRNA) [Ic_S1_P5E.1_K5.1_C5.1_H5.1_A5.1_[T5A]_[T6A]_F5.1_[T8C]_[T9A]_[A10C]_T5.1]	=	7.25
